Molecular target: human GABAA α2β2γ1 receptor (Homo sapiens (Human), UniProt P47869+Q8N1C3)
Experiment: Radioligand binding assay, competition for [3H]RO7239181, γ1-containing GABAA subtypes
Conditions: Ki h-GABAA α2β2γ1, membranes of HEK293F cells, [3H]RO7239181 20-30 nM, Table 2
pKi: −log10 of the molar value.
Would you please tag the item Fulfilled when its pKi is 8 or above, and Not fulfilled when it is below?

Some solved cases for reference:
### Prompt Confirm if pKi reported for the compound Cc1nc2n(n1)-c1sc3c(c1C(c1c(F)cccc1F)=N[C@H]2C)COCCO3 [Example 28] is 8 or above.
### Response Fulfilled

### Prompt Confirm if pKi reported for the compound C[C@@H]1N=C(c2c(F)cccc2F)c2c(sc3c2COCCO3)-n2c(C3CC3)nnc21 [Example 43] is 8 or above.
### Response Not fulfilled

### Prompt Confirm if pKi reported for the compound Cc1nnc2n1-c1sc3c(c1C(c1c(F)cccc1F)=N[C@H]2C)CCC[C@H](F)C3 (single isomer, unassigned) [Example 17] is 8 or above.
### Response Fulfilled

### Prompt Confirm if pKi reported for the compound Cc1nnc2n1-c1sc3c(c1C(c1c(F)cccc1F)=N[C@H]2C)CC[C@@H](F)CO3 [Example 56] is 8 or above.
### Response Not fulfilled

### Prompt Confirm if pKi reported for the compound Cc1nnc2n1-c1sc3c(c1C(c1c(F)cccc1F)=NC2)CCOCC3 [Example 5] is 8 or above.
### Response Not fulfilled

Switching to the query record.
### Prompt Confirm if pKi reported for the compound Cc1cn2c(n1)[C@H](C)N=C(c1c(F)cccc1F)c1c-2sc2c1COCCC2 [Example 58] is 8 or above.
### Response Not fulfilled

====

Target: h-GABA-A α2β2γ1 (Homo sapiens (Human), UniProt P47869+Q8N1C3)
Experiment: Two-electrode voltage clamp electrophysiology in Xenopus oocytes expressing GABAA receptors
Assay type: cell-based
Conditions: % modulation of GABA EC20 = 100*(Fold increase−1), compound at about 30-fold its Ki α2β2γ1
PARAMETER: Efficacy (GABA) % (%)
API: value field is a number in %; no unit string.

Form: compound = Cc1nnc2n1-c1sc3c(c1C(c1c(F)cccc1F)=N[C@H]2C)OCCCC3 [Example 33] ; Efficacy (GABA) % = 76

Form: compound = C[C@@H]1N=C(c2c(F)cccc2F)c2c(sc3c2CCCCC3)-n2c(-c3cccnn3)nnc21 [Example 4] ; Efficacy (GABA) % = 119

====

Biological target: human GABAA α1β3γ2 receptor (Homo sapiens (Human), UniProt P14867+P18507)
Assay: Radioligand binding assay, competition for [3H]Flumazenil, γ2-containing GABAA subtypes
Conditions: Ki α1β3γ2 (nM)/Ki α2β2γ1 (nM), Table 1
Below, each entry is listed with its recorded γ2/γ1 Selectivity Ratio.
# respond with the number and nothing more

Recorded results for 2 compounds are shown here.
Form: compound = `C[C@@H]1N=C(c2c(F)cccc2F)c2c(sc3c2COCCO3)-n2c(C(F)F)nnc21` ; γ2/γ1 Selectivity Ratio = 626.6

Form: compound = `C[C@@H]1N=C(c2c(F)cccc2F)c2c(sc3c2COCCC3)-n2nc(C(=O)NC[C@@](C)(O)C(F)(F)F)nc21` ; γ2/γ1 Selectivity Ratio = 71.1

Continuing:
Form: compound = `C[C@@H]1N=C(c2c(F)cccc2F)c2c(sc3c2COCCO3)-n2nc(C(=O)N3CC(F)C3)nc21` ; γ2/γ1 Selectivity Ratio = 691.7

Form: compound = `C[C@@H]1N=C(c2c(F)cccc2F)c2c(sc3c2COCCO3)-n2nc(C(=O)NC[C@](C)(O)C(F)(F)F)nc21` ; γ2/γ1 Selectivity Ratio = 174.6

Form: compound = Cc1nnc2n1-c1sc3c(c1C(c1c(F)cccc1F)=N[C@H]2C)CC[C@H](F)CC3 (single isomer, unassigned) ; γ2/γ1 Selectivity Ratio = 286.6

Form: compound = `C[C@@H]1N=C(c2c(F)cccc2F)c2c(sc3c2COCCO3)-n2c(C3CC3)nnc21` ; γ2/γ1 Selectivity Ratio = 227.2

Form: compound = `Cc1nc2n(n1)-c1sc3c(c1C(c1c(F)cccc1F)=N[C@H]2C)COC[C@H](C)O3` ; γ2/γ1 Selectivity Ratio = 157.6

Form: compound = `CCc1nc2n(n1)-c1sc3c(c1C(c1c(F)cccc1F)=N[C@H]2C)COC[C@H](C)O3` ; γ2/γ1 Selectivity Ratio = 166.8

Form: compound = `C[C@@H]1N=C(c2c(F)cccc2F)c2c(sc3c2CCCCC3)-n2c1n[nH]c2=O` ; γ2/γ1 Selectivity Ratio = 65.3

Form: compound = Cc1nnc2n1-c1sc3c(c1C(c1c(F)cccc1F)=N[C@H]2C)CCC(F)C(F)C3 (single isomer, unassigned) ; γ2/γ1 Selectivity Ratio = 340.3

Form: compound = `Cc1nnc2n1-c1sc3c(c1C(c1c(F)cccc1F)=NC2)CCCCO3` ; γ2/γ1 Selectivity Ratio = 20.5
